Tested on: COLO 205
protocol_text: Cell cycle arrest in human COLO205 cells assessed as accumulation at G1 phase at 16 uM after 24 hrs by FACS analysis (reference value: 71.02 +/- 1.00%)
Format: functional
property_measured: Activity (%)
Kindly provide the numeric value in % only, without the unit symbol.

Would you please look over these solved cases?
structure_string: COc1ccc(-c2nc3cc(F)ccc3s2)cc1OC
Activity (%): 52.82

structure_string: FC(F)(F)C(F)(F)C(F)(F)C(F)(F)C(F)(F)C(F)(F)C(F)(F)C(F)(F)CCn1cc(COc2ccccc2-c2nc3ccccc3s2)nn1
Activity (%): 46.57

structure_string: FC(F)(F)C(F)(F)C(F)(F)C(F)(F)C(F)(F)C(F)(F)CCn1cc(COc2ccccc2-c2nc3ccccc3s2)nn1
Activity (%): 61.36

Switching to the query record.
Incoming: # return Activity of FC(F)(F)c1cccc(-n2cc(COc3ccccc3-c3nc4ccccc4s3)nn2)c1 (system: COLO 205)
Outgoing: 45.77

---

Reported IC50 values are given for each entry in this list.
System: MCF-10A
protocol_text: Cytotoxicity against human MCF10A cells after 24 hrs by MTT assay
Type: cell-based
# number only, unit µM dropped from output

structure_string: FC(F)(F)C(F)(F)C(F)(F)C(F)(F)C(F)(F)C(F)(F)C(F)(F)C(F)(F)CCn1cc(COc2ccccc2-c2nc3ccccc3s2)nn1
tested_target: MCF-10A
IC50 / µM: 33.1
//
structure_string: Fc1ccc(-n2cc(COc3ccccc3-c3nc4ccccc4s3)nn2)cc1
tested_target: MCF-10A
IC50 / µM: 33.3
//
structure_string: Fc1ccc(-n2cc(COc3ccccc3-c3nc4ccccc4s3)nn2)cc1Cl
tested_target: MCF-10A
IC50 / µM: 26.3

Incoming: Note IC50 for the compound shown: Cc1ccc(-c2cc(COc3ccccc3-c3nc4ccccc4s3)on2)cc1
Outgoing: 26.4

---

Listed next: entries and their corresponding pIC50.
Test system: MCF-10A
protocol_text: Cytotoxicity against human MCF10A cells after 24 hrs by MTT assay
Type: cell-based
As a rule, pIC50 stands for the negative log10 of the concentration, concentration in M.

For orientation, consider the following solved cases.
structure_string: COc1cc(-c2cc(COc3ccccc3-c3nc4ccccc4s3)on2)cc(OC)c1OC
pIC50: 4.37
--
structure_string: Brc1ccc(-c2cc(COc3ccccc3-c3nc4ccccc4s3)on2)cc1
pIC50: 4.53
--
structure_string: FC(F)(F)Oc1ccc(-c2cc(COc3ccccc3-c3nc4ccccc4s3)on2)cc1
pIC50: 4.36
--
structure_string: c1ccc(-n2cc(COc3ccccc3-c3nc4ccccc4s3)nn2)cc1
pIC50: 4.44
--
structure_string: COc1ccc(-c2nc3cc(F)ccc3s2)cc1OC
pIC50: 4.60

Incoming: Give the reported pIC50 for this molecule. FC(F)(F)C(F)(F)C(F)(F)C(F)(F)C(F)(F)C(F)(F)CCn1cc(COc2ccccc2-c2nc3ccccc3s2)nn1
Outgoing: 4.46

Incoming: Could you please provide reported pIC50 for FC(F)(F)c1cccc(-n2cc(COc3ccccc3-c3nc4ccccc4s3)nn2)c1 ? Thanks!
Outgoing: 4.51

Incoming: Dear colleague, please send me the reported pIC50 for Fc1ccccc1-c1cc(COc2ccccc2-c2nc3ccccc3s2)on1 when you can.
Outgoing: 4.37
